Ref: patent US8580556B2

Please provide measured relative β-galactosidase activity, inducer Es for the entries that follow.
- Test system: tetA promoter (PtetA)-lacZ reporter in E. coli KM3
- Assay type: cell-based
- condition.context: Table 4; ethametsulfuron 20 μg/ml (20 ppm); 48 hrs at 30° C.
Write the value as a bare number.

Query (molecule): L1-2: library L1 hit, sulfonylurea-responsive TetR(B) variant, SEQ ID NO: 3 (protein, Sulfonylurea responsive repressor L1-02) MGSRLDKSKVINSALELLNEVGIEGLTTRKLAQKLGVEQPTLYWHVKNKRALLDALAIEMLDRHATHFCPLEGESWQDFLRNNAKSFRCALLSHRDGAKVCLGTAVTEKQYETMENILAFLCQQGFSLENALYARRAVIAFTLGCVLWDQEYQVAKEERETPTTDSMPPLLRQARELIDHQGAEPAFLFGLELIICGLEKQLKCESGS ; field requested: relative β-galactosidase activity, inducer Es
5.8

Next: L1-22: library L1 hit, sulfonylurea-responsive TetR(B) variant, SEQ ID NO: 7 (protein, Sulfornylurea responsive repressor L1-22) MGSRLDKSKVINSALELLNEVGIEGLTTRKLAQKLGVEQPTLYWHVKNKRALLDALAIEMMDRHHTHFCPLEGESWQDFLRNTAKSYRCALLSHRDGAKVCLGTAITEKQYETKENNLAFLCQQGFSLENALYARQAVRVFTLGCVLFDQEMQVAKEERETPTTDSMPPLLRQASELLDHQGAEPAFLFGLELIICGLEKQLKSESGS
0.3

Next: L1-38: library L1 hit, sulfonylurea-responsive TetR(B) variant (protein, Sulfonylurea responsive repressor L1-38) MGSRLDKSKVINSALELLNEVGIEGLTTRKLAQKLGVEQPTLYWHVKNKRALLDALAIEMADRHHTHFCPLEGESWQDFLRNNAKSMRCALLSHRDGAKVWLGTAWTEKQYETTENMLAFLCQQGFSLENALYAWRAVTMFTLGCVLRDQEWQVAKEERETPTTDSMPPLLRQALELGDHQGAEPAFLFGLELIICGLEKQLKCESGS
14.8

Next: L1-20: library L1 hit, sulfonylurea-responsive TetR(B) variant, SEQ ID NO: 6 (protein, Sulfonylurea responsive repressor L1-20) MGSRLDKSKVINSALELLNEVGIEGLTTRKLAQKLGVEQPTLYWHVKNKRALLDALAIEMMDRHQTHFCPLEGESWQDFLRNNAKSMRCALLSHRDGAKVFLGTAWTEKQYETVENLLAFLCQQGFSLENALYALNAVATFTLGCVLWDQEKQVAKEERETPTTDSMPPLLRQAHELGDHQGAEPAFLFGLELIICGLEKQLKSESGS
15.0
